Could you please report measured Mean normalized OD for the items listed next?
tgt: T1, human recombinant soluble ACE2 (human, UniProt Q9BYF1 18-740)
T1 construct: also called hrsACE2
experimental_details: ELISA screen
Answers are plain numbers, in OD.

// solved cases for Mean normalized OD follow
binder | reported
Clec3b CRD-mouse IgG2a-Fc fusion protein (Fc fusion) VNLKCLLAFTQPKTFHEASEDCISQGGTLGTPQSELENEALFEYARHSVGNDANIWLGLNDMAAEGAWVDMTGGLLAYKNWETEITTQPDGGKAENCAALSGAANGKWFDKRCRDQLPYICQGGGSGGGSGGGS | 0.001
Olr1 CRD-mouse IgG2a-Fc fusion protein (Fc fusion) HKENCYLFHGPFSWEKNRQTCQSLGGQLLQINGADDLTFILQAISHTTSPFWIGLHRKKPGQPWLWENGTPLNFQFFKTRGVSLQLYSSGNCAYLQDGAVFAENCILIAFSICQGGGSGGGSGGGS | 0.116
Selp CRD-mouse IgG2a-Fc fusion protein (Fc fusion) WTYNYSTKAYSWNNSRVFCRRHFTDLVAIQNKNEIAHLNDVIPFFNSYYWIGIRKINNKWTWVGTNKTLTEEAENWADNEPNNKKNNQDCVEIYIKSNSAPGKWNDEPCFKRKRALCGGGSGGGSGGGS | 0

[Q] What Mean normalized OD value was documented for this binder, Cd72 CRD-mouse IgG2a-Fc fusion protein (Fc fusion) CCPCGWIPYQERCFYISHTLGSLEESQKYCTSLSSKLAAFDEPSKYYYEVSLPSGLEELLDRSKSYWIQMSKKWRQDSDSQSRHCVRIKTYYQKWERTISKCAELHPCICESGGGSGGGSGGGS ?
[A] 0.044
